# ASSAY PROCEDURE: protein stability index of a GFP-peptide fusion (GPS, HEK-293T) (PSI 1-6); higher = more stable;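 note: 24-mer peptide tiles fused after GFP, lentivirally expressed, FACS-sorted into six equal bins by GFP/DsRed ratio, decoded by Illumina sequencing, PSI is the read-weighted mean bin number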
# REPORTED CONDITIONS: treatment: MLN4924 1 uM, 8 h; c terminus: a fixed tail appended
Kindly note that classification relies on protein stability index with these boundaries: b0 (below 3), b1 (3 to below 4), b2 (4 or more)

- SEQUENCE: "RSSSESKLPSSGSGKRLSGVSSVD [RIPK4]"
  GROUP: "b2"
- SEQUENCE: "LRTLSRAKFWPRRRFNFFVLENNL [DNAAF3]"
  GROUP: "b0"
- SEQUENCE: "LRDGAVPLPESRREIEELLAEAKY [KCTD10]"
  GROUP: "b2"
- SEQUENCE: "VQLAQQQAALQKQQEVVVAGSSLP [ACBD3]"
  GROUP: "b2"
- SEQUENCE: "TAVAQGGWRSLWLGWGPTALRDVP [SLC25A39]"
  GROUP: "b0"
- SEQUENCE: "FASLRPSEPFLTPYLLGPDKNLTE [SLC19A2]"
  GROUP: "b1"
- SEQUENCE: "SQNSFLVQEVMEEEWNALQSVENC [RPAIN]"
  GROUP: "b2"
- SEQUENCE: "KRRQLEDERRQLQHLKSKALRERW [PALM]"
  GROUP: "b2"
- SEQUENCE: "MAGNFWQSSHYLQWILDKQDLLKE [CCNC]"
  GROUP: "b0"
- SEQUENCE: "VYTNLSSYSPASASSGGAGAAVGT [JUNB]"
  GROUP: "b1"
- SEQUENCE: "KPVGRQACDLQPCPTEPPDDSCQD [ADAMTSL2]"
  GROUP: "b2"
- SEQUENCE: "PADSFESPLTLAACGGHVELAALL [ANKRD17]"
  GROUP: "b1"
- SEQUENCE: "KGALQKKPLYVAFSFMYILVGLTV [KCNK9]"
  GROUP: "b0"
- SEQUENCE: "LDQLLDMPAAGLAVQLRHAWNPED [SPSB4]"
  GROUP: "b1"
- SEQUENCE: "LKDIFMFITRQLKGLEDTKSPQFN [PDS5B]"
  GROUP: "b0"
- SEQUENCE: "LYLLSGSIIAVAMQRGARLPAEVA [POMT2]"
  GROUP: "b1"
- SEQUENCE: "EDDDWGEDTTEEAQRRRMDEISDH [EIF5]"
  GROUP: "b2"
